Items are presented alongside their recorded binding relative to wild-type Fc.
target: T1, CD16A F158 (UniProt P08637 17-208, limits assumed); experiment: assay not named in Table 4
T1 construct: Only the name and allotype are printed; also called FcγRIIIA
T1 sequence (P08637 17-208 limits assumed): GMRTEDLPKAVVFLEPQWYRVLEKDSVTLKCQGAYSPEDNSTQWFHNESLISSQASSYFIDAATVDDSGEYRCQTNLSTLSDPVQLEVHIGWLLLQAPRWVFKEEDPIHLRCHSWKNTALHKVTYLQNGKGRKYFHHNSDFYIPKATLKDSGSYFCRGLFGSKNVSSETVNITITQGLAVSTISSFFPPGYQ
Write the number on its own, no unit after it.

IN: Form field: reported binding relative to wild-type Fc of Fc variant F243L P247L N421K (other, UniProt P01857-1 104-330, looked up, domain: Fc) DKTHTCPPCPAPELLGGPSVFLLPPKLKDTLMISRTPEVTCVVVDVSHEDPEVKFNWYVDGVEVHNAKTKPREEQYNSTYRVVSVLTVLHQDWLNGKEYKCKVSNKALPAPIEKTISKAKGQPREPQVYTLPPSRDELTKNQVSLTCLVKGFYPSDIAVEWESNGQPENNYKTTPPVLDSDGSFFLYSKLTVDKSRWQQGKVFSCSVMHEALHNHYTQKSLSLSPGK
OUT: 1.71

IN: Form field: reported binding relative to wild-type Fc of Fc variant P247L D270E N421K (other, UniProt P01857-1 104-330, looked up, domain: Fc) DKTHTCPPCPAPELLGGPSVFLFPPKLKDTLMISRTPEVTCVVVDVSHEEPEVKFNWYVDGVEVHNAKTKPREEQYNSTYRVVSVLTVLHQDWLNGKEYKCKVSNKALPAPIEKTISKAKGQPREPQVYTLPPSRDELTKNQVSLTCLVKGFYPSDIAVEWESNGQPENNYKTTPPVLDSDGSFFLYSKLTVDKSRWQQGKVFSCSVMHEALHNHYTQKSLSLSPGK
OUT: 2.46
